target: human LPA1 (Homo sapiens); construct: expressed in transfected cells; host or cells: CHO-K1; assay: In vitro LPA1 calcium flux antagonist assay - Bioduro protocol; type: cell-based; details: Table B3; CHO-K1 cells overexpressing human LPA1 and G15a, LPA challenge at EC80; read-out: Activity (IC50 class)
Sequence (Q92633 whole entry): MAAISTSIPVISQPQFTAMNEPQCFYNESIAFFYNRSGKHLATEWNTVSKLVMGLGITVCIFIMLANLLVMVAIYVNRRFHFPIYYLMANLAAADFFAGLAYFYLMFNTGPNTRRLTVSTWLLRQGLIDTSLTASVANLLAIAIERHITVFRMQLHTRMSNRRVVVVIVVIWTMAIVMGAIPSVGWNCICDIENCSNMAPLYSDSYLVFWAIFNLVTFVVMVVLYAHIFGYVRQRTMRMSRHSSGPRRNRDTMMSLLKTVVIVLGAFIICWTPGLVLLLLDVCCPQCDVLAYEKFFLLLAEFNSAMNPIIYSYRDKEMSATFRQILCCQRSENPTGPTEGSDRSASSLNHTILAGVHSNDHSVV
Entries and their measured IC50 follow.
quantity: IC50

>>> result("COc1cc(-c2c(F)cc(NC3(C(=O)O)CCOCC3)cc2COC2CCCC2)c(F)c(OC)c1C")
"< 100 nM"
>>> result("CCCCOCc1cc(NC2(C(=O)O)CCOCC2)ccc1-c1cc(OC)cc(OC)c1Cl")
"< 100 nM"
>>> result("COC(=O)N1CCC(Nc2cc(C)c(-c3cc(C#N)cc(OC)c3)c(COC3CCCC3)c2)(C(=O)O)CC1")
"100 to 1000 nM"
>>> result("COc1cc(-c2ccc(NC3(C(=O)O)CCOCC3)cc2COC2CC3CC3C2)cc(OC)c1C (stereo not shown)")
"< 100 nM"
>>> result("CCOc1c(C)ccc(-c2ccc(NC3(C(=O)O)CCOCC3)cc2COC2CC2)c1F")
"< 100 nM"
>>> result("COc1cc(-c2ccc(OCC3(C(=O)O)CCOCC3)cc2COC2CCCC2)c(F)c(OC)c1C")
"100 to 1000 nM"
>>> result("COc1cc(OC)cc(-c2c(C)cc(NC3(C(=O)O)CCOCC3)cc2COC2CCCC2)c1")
"100 to 1000 nM"
>>> result("CCCc1nccc(-c2ccc(NC3(C(=O)O)CCOCC3)cc2COC2CC2)c1F")
"> 1000 nM"
>>> result("CCOc1cncc(-c2ccc(NC3(C(=O)O)CCOCC3)cc2COC2CC2)c1C")
"< 100 nM"
>>> result("COc1cc(-c2ccc(NC3(C(=O)O)CC(OC)C3)cc2COC2CCCC2)c(C)c(OC)c1C (stereo not shown) [Compound 196]")
"< 100 nM"
>>> result("CCOc1cncc(-c2ccc(NC3(C(=O)O)CCOCC3)c(F)c2COC2CC2)c1C(F)F")
"100 to 1000 nM"
>>> result("COc1cc(-c2ccc(NC3(C(=O)O)CCOCC3)cc2COC2CC2)c(F)c(OC)c1C")
"< 100 nM"
>>> result("COc1cc(-c2ccc(C3(C(=O)O)CCOCC3)cc2COC2CCCC2)c(Cl)c(OC)c1C")
"100 to 1000 nM"
>>> result("COc1cc(OC)c(C)c(-c2c(F)cc(NC3(C(=O)O)CCOCC3)cc2COC2CCCC2)c1")
"< 100 nM"
>>> result("COc1cc(-c2c(C)cc(NC3(C(=O)O)CCOCC3)cc2COC2CCCC2)cc(OC)c1C")
"< 100 nM"
>>> result("COc1cc(-c2ccc(NC3(C(=O)O)C[C@@H](C)O[C@@H](C)C3)cc2COC2CCCC2)c(F)c(OC)c1C (stereo partly shown)")
"100 to 1000 nM"
>>> result("CCCCOCc1cc(NC2(C(=O)O)CCOCC2)ccc1-c1cc(OC)c(C)c(OC)c1F")
"< 100 nM"
>>> result("O=C(O)C1(Nc2ccc(-c3cccc(OC4CC4)c3)c(COC3CC3)c2)CCOCC1")
"> 1000 nM"
>>> result("COc1cc(-c2c(F)cc(NC3(C(=O)O)CCOCC3)cc2COC2CCCC2)cc(OC)c1C")
"< 100 nM"
>>> result("COc1cc(-c2ccc(NC3(C(=O)O)CCOCC3)cc2COC2CCCC2)c(Cl)c(OC)c1C#N")
"< 100 nM"
>>> result("CCc1nccc(-c2ccc(NC3(C(=O)O)CCOCC3)cc2COC2CC2)c1F")
"< 100 nM"
>>> result("CCOc1cccc(-c2ccc(NC3(C(=O)O)CCOCC3)cc2CCC2CC2)c1F")
"< 100 nM"
>>> result("COc1cc(-c2ccc(NC3(C(=O)O)CCOCC3)cc2COC2COc3ccccc32)cc(OC)c1C (single isomer, unassigned) [Compound 217]")
"100 to 1000 nM"
>>> result("O=C(O)C1(Nc2ccc(-c3cccc(OC4CC4)c3F)c(COC3CC3)c2)CCOCC1")
"< 100 nM"
>>> result("COc1cc(-c2c(CC#N)cc(NC3(C(=O)O)CCOCC3)cc2COC2CCCC2)cc(OC)c1C")
"100 to 1000 nM"
>>> result("COc1cc(-c2ccc(NC3(C(=O)O)CCC(O)CC3)cc2COC2CCCC2)cc(OC)c1C (stereo not shown)")
"100 to 1000 nM"
>>> result("COc1cc(-c2ccc(NC3(C(=O)O)CCOCC3)cc2COCC2(C#N)CC2)cc(OC)c1C")
"> 1000 nM"
>>> result("COc1cc(OC)c(F)c(-c2ccc(NC3(C(=O)O)CCOCC3)cc2CCC2CCCC2)c1")
"< 100 nM"
>>> result("CCOc1cccc(-c2ccc(NC3(C(=O)O)CCOCC3)cc2COC2CC2)c1Cl")
"< 100 nM"
>>> result("COc1c(C(C)OC)ccc(-c2ccc(NC3(C(=O)O)CCOCC3)cc2COC2CCCC2)c1C (single isomer, unassigned) [Compound 242]")
"100 to 1000 nM"
>>> result("Cc1c(OC2CC2)cccc1-c1ccc(NC2(C(=O)O)CCOCC2)cc1COC1CC1")
"< 100 nM"

Data origin, for the record: patent US11884627B2
